assay.info: Agonist activity at Hh receptor in mouse C3H10T1/2 cells assessed as increase in Gli1 expression by RT-PCR analysis
Type: functional, cell-based
cond: C3H 10T1/2
parameter.measured: EC50
Quick note: unit goes after the number.

Prompt: Please indicate EC50 recorded for `CC(C)C[C@@H](O)C[C@@H](C)[C@H]1CC[C@H]2[C@@H]3CC=C4C[C@@H](O)CC[C@]4(C)[C@H]3CC[C@]12C`
Response: 540 nM

* * *

assay.info: Agonist activity at LXR in mouse M210B4 cells assessed as increase in ABCA1 expression by RT-PCR analysis
Assay type: functional, cell-based
parameter.measured: pEC50
Quick note: pEC50 means taking -log10 of the concentration in moles per liter.

Prompt: Specify reported pEC50 for the compound shown: `CC(C)C[C@@H](O)C[C@@H](C)[C@H]1CC[C@H]2[C@@H]3CC=C4C[C@@H](O)CC[C@]4(C)[C@H]3CC[C@]12C`
Response: 5.81

Recorded values, source ChEMBL document CHEMBL2157936.
